method summary: Acute hepatotoxicity assay in Swiss mice (plasma liver markers)
Assay type: in vivo
measurement conditions: Swiss mice, single 100 mg/kg intraperitoneal, 24 h after administration, plasma
Answer each item with its documented BIL (total bilirubin) plasma level.
Answers are plain numbers, in mg/dL.

Below are worked cases with known answers.
[
  {
    "compound": "O=C(O)c1cccnc1Nc1ccc(-c2cccc(OC(F)(F)F)c2)cc1F",
    "reported result": 0.01
  },
  {
    "compound": "CCOc1cccc(-c2ccc(Nc3ncccc3C(=O)O)c(OC(F)(F)F)c2)c1",
    "reported result": 0.05
  },
  {
    "compound": "O=C(O)c1cccnc1Nc1c(F)cc(-c2cccc(OC3CC3)c2)cc1F",
    "reported result": 0.14
  },
  {
    "compound": "COc1cccc(-c2ccc(Nc3cnccc3C(=O)[O-])c(OC(F)(F)F)c2)c1.[Li+]",
    "reported result": 0
  },
  {
    "compound": "COc1cccc(-c2cc(F)c(Nc3ncccc3C(=O)O)c(F)c2)c1",
    "reported result": 0
  }
]

Report BIL (total bilirubin) plasma level for each item below.
1. COc1cccc(-c2ccc(Nc3ncccc3C(=O)O)c(F)c2)c1
2. C/C(O)=C(\C#N)C(=O)Nc1ccc(C(F)(F)F)cc1 [Teriflunomide, reference compound]
3. CCOc1cccc(-c2cc(F)c(Nc3ncccc3C(=O)O)c(F)c2)c1
4. Cc1c(-c2ccccc2)cc(F)c(Nc2ncccc2C(=O)O)c1F
5. Cc1c(-c2ccccc2Cl)cc(F)c(Nc2ncccc2C(=O)O)c1F

## Result
1: 0.03; 2: 0.5; 3: 0.05; 4: 0.08; 5: 0.06

## Task Query (compound): `CCOc1cccc(-c2ccc(Nc3ncccc3C(=O)O)c(F)c2)c1` ; field requested: BIL (total bilirubin) plasma level
## Result 0
